target: AChE (Electrophorus electricus, UniProt O42275); construct: obtaining AChE and BChE enzymes from electric eel and equine serum, respectively; from tissue; host or cells: electric eel; assay: biochemical; details: Ellman's method, 1000 to 62.5 μg/mL, n = 3; read-out: AChEI (IC50) (converted)
Sequence (O42275 24-633): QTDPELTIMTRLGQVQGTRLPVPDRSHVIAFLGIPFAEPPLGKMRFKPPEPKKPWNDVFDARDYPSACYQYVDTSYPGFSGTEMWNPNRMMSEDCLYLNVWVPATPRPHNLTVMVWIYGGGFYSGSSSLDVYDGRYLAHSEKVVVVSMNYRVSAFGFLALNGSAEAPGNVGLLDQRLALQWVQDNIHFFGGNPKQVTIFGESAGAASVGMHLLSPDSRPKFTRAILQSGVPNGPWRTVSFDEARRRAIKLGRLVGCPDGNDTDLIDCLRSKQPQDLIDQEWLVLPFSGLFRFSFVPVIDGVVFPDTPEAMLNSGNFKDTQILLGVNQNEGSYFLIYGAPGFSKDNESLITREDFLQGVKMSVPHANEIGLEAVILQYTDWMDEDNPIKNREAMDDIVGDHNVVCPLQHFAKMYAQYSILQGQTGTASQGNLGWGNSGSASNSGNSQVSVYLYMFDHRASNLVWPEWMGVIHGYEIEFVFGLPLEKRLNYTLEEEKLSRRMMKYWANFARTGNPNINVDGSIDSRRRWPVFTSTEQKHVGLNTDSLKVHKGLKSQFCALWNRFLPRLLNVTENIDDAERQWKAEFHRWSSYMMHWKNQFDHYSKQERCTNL
observable: IC50 (µM)
Give the value in µM but do not write µM after it.

Consider the worked cases shown below.
[[record]]
smiles_repr = "CN(C)c1ccc(/C=C/C(=O)/C=C/c2ccc(N(C)C)cc2)cc1"
target_entity = "AChE (Electrophorus electricus, UniProt O42275)"
observable = "IC50"
unit_spec = "µM"
obs_value = 920

[[record]]
smiles_repr = "O=C(/C=C/c1ccc(Cl)cc1)/C=C/c1ccc(Cl)cc1"
target_entity = "AChE (Electrophorus electricus, UniProt O42275)"
observable = "IC50"
unit_spec = "µM"
obs_value = 96.9

[[record]]
smiles_repr = "COc1ccc(/C=C/C(=O)/C=C/c2ccc(OC)cc2)cc1"
target_entity = "AChE (Electrophorus electricus, UniProt O42275)"
observable = "IC50"
unit_spec = "µM"
obs_value = 317


Record "Cc1ccc(/C=C/C(=O)/C=C/c2ccc(C)cc2)cc1" . Reported IC50: 399

###

system: BChE in the hippocampus region of mouse brain; construct: from tissue; host or cells: mouse brain hippocampus (supernatant of homogenate); type: in vivo; conditions: pretreatment, then scopolamine, n = 6
observable: Reversal of scopolamine-increased hippocampus BChE level (in words)

[[record]]
compound = "COc1ccc(/C=C/C(=O)/C=C/c2ccc(OC)cc2)cc1 [h2]"
obs_value = "significantly reversed"

[[record]]
compound = "O=C(/C=C/c1ccc([N+](=O)[O-])cc1)/C=C/c1ccc([N+](=O)[O-])cc1 [h5]"
obs_value = "no promising results"

[[record]]
compound = "CN(C)c1ccc(/C=C/C(=O)/C=C/c2ccc(N(C)C)cc2)cc1 [h4]"
obs_value = "no promising results"

[[record]]
compound = "Cc1ccc(/C=C/C(=O)/C=C/c2ccc(C)cc2)cc1 [h1]"
obs_value = "no promising results"


Now take the following compound into account.
Record O=C(/C=C/c1ccc(Cl)cc1)/C=C/c1ccc(Cl)cc1 [h3] . Reported Reversal of scopolamine-increased hippocampus BChE level (in words): significantly reversed

###

molecular target: AChE (Electrophorus electricus, UniProt O42275); construct: obtaining AChE and BChE enzymes from electric eel and equine serum, respectively; from tissue; host or cells: electric eel; assay: biochemical
observable: pIC50
Note on pIC50: it is the negative log10 of concentration, concentration in mol/L.

The compound "O=C(/C=C/c1ccc([N+](=O)[O-])cc1)/C=C/c1ccc([N+](=O)[O-])cc1" , tested on AChE (Electrophorus electricus, UniProt O42275), showed pIC50 of 2.71

###

biological target: AChE (Electrophorus electricus); construct: obtaining AChE and BChE enzymes from electric eel and equine serum, respectively; from tissue; host or cells: electric eel; assay: biochemical; details: 1000 µg/mL; read-out: AChE percent enzyme inhibition, Mean ± SEM
observable: inhibition at 1000 µg/mL (%)
Give the value in % but do not write % after it.

[[record]]
compound = "Cc1ccc(/C=C/C(=O)/C=C/c2ccc(C)cc2)cc1 [h1]"
obs_value = 79.7

[[record]]
compound = "O=C(/C=C/c1ccc(Cl)cc1)/C=C/c1ccc(Cl)cc1 [h3]"
obs_value = 83.3

[[record]]
compound = "COc1ccc(/C=C/C(=O)/C=C/c2ccc(OC)cc2)cc1 [h2]"
obs_value = 76.2


Record CN(C)c1ccc(/C=C/C(=O)/C=C/c2ccc(N(C)C)cc2)cc1 [h4] . Reported inhibition at 1000 µg/mL: 63.5
